# ASSAY_EXPLANATION: HUVEC growth inhibition – cell-based, human, primary screen (AID 575);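 also: 100% = median of untreated cell wells with 0.1% DMSO on each plate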
# CONDITION_SET: HUVEC proliferation, CellTiter-Glo luminescence, 72 h; at 10 µM; hits give low values
Reported viability values are given for each entry in this list.
Number in %, nothing else.

COMPOUND: COc1cc(C(=O)NCCc2ccc3c(c2)OCCO3)ccc1OCC(=O)N1CCOCC1
UNITS_OF_MEASURE: %
viability: 112
--
COMPOUND: CCOc1ccc(C2CC(c3ccccc3C)n3nc(N)nc3N2)cc1 (stereo unspecified)
UNITS_OF_MEASURE: %
viability: 87.9
--
COMPOUND: CC1(C)CC(=O)C(C=NCCO)=C(O)C1
UNITS_OF_MEASURE: %
viability: 113

Which viability is listed for COC(=O)CCCCC(=O)C1C(=O)CC(C)(C)C(C(=O)OC)C1=O (stereo unspecified) ?
91.2

Which viability is listed for `CCOC(=O)N1CCN(C(=O)c2c(-c3ccccc3)noc2C)CC1` ?
96.6

Which viability is listed for CCC(C)NC(=O)c1cc(CC(C)C)on1 (stereo unspecified) ?
95.5

Which viability is listed for `CC(=O)Nc1ccc(S(=O)(=O)Nc2nc3c(s2)CCCC3)cc1` ?
106

Which viability is listed for CCOC(=O)C(CC)n1nc(C)n2c(cc3sccc32)c1=O (stereo unspecified) ?
110
